Tested on: Neuro-2a
Test: neurite formation score, plate-normalized to DMSO control mean 5.04 (score (0-8 scale)); higher = more or longer neurites
Details: 1 µM
Structures can show the parent of a compound that is named as a salt.
Please use Criterion met whenever neurite formation score is not below 4, and Criterion not met whenever it is.

// below: answered compounds
compound	label-value
O=c1c(O)c(-c2ccc(O)c(O)c2)oc2cc(O)cc(O)c12	Criterion met
O=S(=O)(c1cccc2c(O)nccc12)N1CCCNCC1 [Hydroxyfasudil hydrochloride]	Criterion not met
COc1cccc(-c2cc(=O)c3ccccc3o2)c1N	Criterion not met
NC(=O)c1ccc(N(C(N)=O)c2c(F)cccc2F)nc1-c1ccc(F)cc1F	Criterion met
C[C@H](NC(=O)/C(C#N)=C/c1cccc(Br)n1)c1ccccc1	Criterion met
COc1ccc(CNc2nc(N(CCO)CCO)nc3c2ncn3C(C)C)cc1	Criterion met
CCCS(=O)(=O)Nc1ccc(F)c(C(=O)c2c[nH]c3ncc(Cl)cc23)c1F	Criterion not met
Cc1c(NC(=O)OC[C@@H]2COCCN2)cn2ncnc(Nc3ccc4c(cnn4Cc4cccc(F)c4)c3)c12	Criterion not met

Assess whether reported neurite formation score for CN1CC[C@H](c2c(O)cc(O)c3c(=O)cc(-c4ccccc4Cl)oc23)[C@H](O)C1 [Flavopiridol hydrochloride] sits at 4 or higher. Criterion met
